target: HLA A*0201 (Homo sapiens, UniProt P04439, D140Y/D185E/D98H/E176V/E277Q/G131W/G231S/I119V/I121R/I166T/I218V/L300P/L318F/N151K/N90K/P208A/P217A/Q86G/Q94H/R138H/R169H/T345S); construct: made in house; assay: MHC peptide-binding assay, purified A*0201
Ends that are not written are not given here.
Lab note: compare IC50 with 5 nM, writing rule met if less and rule not met if equal or more.

{"Chain Sequence": "YLALIATFKI [NS2A1202-1211]", "Assigned Category": "rule not met"}
{"Chain Sequence": "ILALFLAHYI [Epitope M250-259]", "Assigned Category": "rule not met"}
{"Chain Sequence": "FAGKTVWFV [NS31832-1840]", "Assigned Category": "rule not met"}
{"Chain Sequence": "FLAIPPTAGV [Epitope C57-66]", "Assigned Category": "rule met"}

Below 5 nM on IC50? Entry YAMCTNTFVL [Epitope E580-589]
rule not met

Given SLCLMMILPA [Epitope C103-112] , is recorded IC50 strictly lower than 5 nM?
rule not met

Hi there! Is IC50 for ALFSGVSWV [Epitope E727-735] below 5 nM, do you know?
rule not met

Find out if reported IC50 for ILWENNIKL [NS1854-862] is less than 5 nM
rule met

Lab note: IC50 threshold 5 nM. Does this sequence come in strictly under it? FLAHYIGTSL [Epitope M254-263]
rule met

Regarding SLAAIANQAV [NS4B2311-2320] , kindly confirm whether its IC50 is beneath 5 nM.
rule not met

Criterion: IC50 strictly below 5 nM. Is it met by YQLWTALVSL [NS2A1271-1280] ?
rule met

Please determine if KLEKASLIEV [NS1987-996] is below 5 nM in terms of IC50.
rule not met

----------
tested on: PBMC of healthy adult blood donors from Colombo, Sri Lanka; experiment: Ex vivo IFNγ ELISPOT, HLA-matched PBMC of Sri Lankan blood donors; assay type: cell-based, human; set-up: unit not given here; conditions: total over responding donors; restricting HLA allele and serotype as given
Observable: Total Response per epitope
Answers are plain numbers.

// below: answered compounds
{"Smiles Data": "CC[C@H](C)[C@H](NC(=O)[C@H](C)NC(=O)[C@H](C)NC(=O)[C@H](CCSC)NC(=O)[C@@H](NC(=O)[C@@H](N)[C@@H](C)O)[C@@H](C)CC)C(=O)N[C@@H](CC(C)C)C(=O)N[C@@H](C)C(=O)N[C@@H](Cc1ccc(O)cc1)C(=O)O", "Observable": "Total Response per epitope", "Measured Value": 20.0}
{"Smiles Data": "CC[C@H](C)[C@H](NC(=O)[C@H](CCCCN)NC(=O)[C@H](CO)NC(=O)[C@H](CO)NC(=O)CN)C(=O)N[C@@H](CCCNC(=N)N)C(=O)N[C@@H](Cc1c[nH]c2ccccc12)C(=O)N[C@H](C(=O)N[C@H](C(=O)N[C@@H](CCC(=O)O)C(=O)O)C(C)C)[C@@H](C)CC", "Observable": "Total Response per epitope", "Measured Value": 111.7}
{"Smiles Data": "CC[C@H](C)[C@H](N)C(=O)N[C@@H](CS)C(=O)N[C@@H](CO)C(=O)N[C@@H](C)C(=O)N[C@H](C(=O)N1CCC[C@H]1C(=O)N[C@H](C(=O)N[C@@H](Cc1c[nH]cn1)C(=O)N[C@@H](Cc1c[nH]c2ccccc12)C(=O)O)C(C)C)C(C)C", "Observable": "Total Response per epitope", "Measured Value": 115.0}
{"Smiles Data": "CC[C@H](C)[C@H](N)C(=O)N[C@@H](C)C(=O)N[C@@H](CC(N)=O)C(=O)N[C@@H](CCC(N)=O)C(=O)N[C@@H](C)C(=O)N[C@H](C(=O)N[C@H](C(=O)N[C@@H](CC(C)C)C(=O)N[C@@H](CCSC)C(=O)O)C(C)C)[C@@H](C)O", "Observable": "Total Response per epitope", "Measured Value": 1518.3}
{"Smiles Data": "CC(C)C[C@H](NC(=O)[C@H](CO)NC(=O)[C@H](CC(N)=O)NC(=O)[C@H](CCC(=O)O)NC(=O)[C@H](CCCNC(=N)N)NC(=O)[C@H](CO)NC(=O)[C@@H](N)Cc1ccccc1)C(=O)N[C@@H](CO)C(=O)NCC(=O)N[C@H](C(=O)O)C(C)C", "Observable": "Total Response per epitope", "Measured Value": 101.7}

Please give Total Response per epitope, item by item, for the list that follows.
1. CSCC[C@H](NC(=O)[C@H](CCC(=O)O)NC(=O)[C@H](CC(C)C)NC(=O)[C@H](CCCCN)NC(=O)CNC(=O)[C@H](CC(C)C)NC(=O)[C@H](Cc1c[nH]cn1)NC(=O)[C@H](Cc1c[nH]c2ccccc12)NC(=O)[C@@H]1CCCN1C(=O)CN)C(=O)O
2. CC[C@H](C)[C@H](NC(=O)[C@H](CC(C)C)NC(=O)[C@H](CS)NC(=O)[C@H](CC(C)C)NC(=O)[C@H](CC(C)C)NC(=O)[C@@H](N)[C@@H](C)O)C(=O)N1CCC[C@H]1C(=O)N[C@H](C(=O)N[C@H](C(=O)O)C(C)C)[C@@H](C)O
3. CC[C@H](C)[C@H](N)C(=O)N[C@@H](CCC(N)=O)C(=O)N1CCC[C@H]1C(=O)N[C@@H](Cc1ccccc1)C(=O)N[C@@H](CC(C)C)C(=O)N[C@@H](C)C(=O)N[C@@H](CC(C)C)C(=O)NCC(=O)N[C@@H](Cc1ccccc1)C(=O)O

1. 90.0
2. 53.3
3. 85.0
